molecular target: UniProtKB P11229; assay: mAChR M1 cell-based functional assay (calcium mobilization), agonist mode: compound alone, Emax relative to acetylcholine maximum; details: relative to the maximum for acetylcholine
Emax vs 10%: less than gives TRUE; not less than gives FALSE.

Solved cases below.
* [2H]C1([2H])c2ncccc2C(=O)N1Cc1c(F)cc(-c2ccc(OCS(C)(=O)=O)c3nn(C)cc23)cc1F | FALSE
* [2H]C([2H])([2H])Oc1cnc2c(c1)C(=O)N(Cc1ccc(-c3ccc(OC)c4nn(C)cc34)cc1F)C2([2H])[2H] | FALSE
* [2H]C1([2H])c2ncccc2C(=O)N1Cc1c(C)cc(-c2ccnc3nn(C)cc23)cc1F | FALSE
* [2H]C1([2H])c2ncccc2C(=O)N1Cc1c(F)cc(-c2ccc(OC(F)(F)F)c3c2cnn3C([2H])([2H])[2H])cc1F | TRUE
* [2H]C1([2H])c2ncccc2C(=O)N1Cc1c(F)cc(-c2ccc(OC3CCOCC3)c3nn(C)cc23)cc1F | FALSE

Prompt: API: query returns whether the compound falls strictly under 10% in Emax. Query: `[2H]C1([2H])c2ncccc2C(=O)N1Cc1c(F)cc(-c2ccc(OC(C)C)c3nn(C)cc23)cc1F`
Response: FALSE

Prompt: Take the compound `[2H]C1([2H])c2ncccc2C(=O)N1Cc1c(F)cc(-c2ccc(C(F)F)c3nn(C)cc23)cc1F` and say whether its Emax is less than 10%.
Response: FALSE

Prompt: Determine if `[2H]C1([2H])c2ncccc2C(=O)N1Cc1c(F)cc(-c2ccc(O[C@@H]3CCOC3)c3nn(C)cc23)cc1F` shows Emax strictly lower than 10%.
Response: FALSE

Prompt: Lab note: confirm whether the reported Emax for this compound is below 10%, equality not counting. compound: `[2H]C1([2H])c2ncccc2C(=O)N1Cc1c(F)cc(-c2ccc(OC3CC3)c3nn(C([2H])([2H])[2H])cc23)cc1F`
Response: FALSE

Prompt: Here's an entry: `[2H]C1([2H])c2ncccc2C(=O)N1Cc1c(F)cc(-c2cccc3c2cnn3C([2H])([2H])[2H])cc1F` . Is its Emax below 10%?
Response: TRUE

Prompt: Hello, I'm reviewing records and need to know if Emax of `[2H]C1([2H])c2ncccc2C(=O)N1Cc1c(F)cc(-c2cc(F)cc3nn(C)cc23)cc1F` is below 10%. Could you check?
Response: TRUE

Prompt: State whether 10% exceeds Emax recorded for `[2H]C1([2H])c2ncccc2C(=O)N1Cc1c(F)cc(-c2ccc(OCC)c3nn(C([2H])([2H])[2H])cc23)cc1F` .
Response: FALSE

Prompt: Dear reviewer, please state whether `[2H]C1([2H])c2ncccc2C(=O)N1Cc1c(C)cc(-c2ccc(Cl)c3nn(C)cc23)cc1F` has Emax strictly beneath 10%.
Response: TRUE

Prompt: Is it true that Emax reported for `[2H]C1([2H])c2ncccc2C(=O)N1Cc1ccc(-c2cccc3nn(C)cc23)cc1` is less than 10%?
Response: TRUE

Prompt: Quick check: Emax of `[2H]C1([2H])c2ncccc2C(=O)N1Cc1c(F)cc(-c2ccc(OCCOC)c3nn(C([2H])([2H])[2H])cc23)cc1F` under 10%?
Response: FALSE

Prompt: Report whether reported Emax is lower than 10% (strictly) for `[2H]C1([2H])c2ncccc2C(=O)N1Cc1ccc(-c2cnc3nn(C)cc3c2)cc1C`
Response: TRUE

Prompt: Quick check: Emax of `[2H]C1([2H])c2ncccc2C(=O)N1Cc1c(F)cc(-c2ccc(C3CC3)c3nn(C)cc23)cc1F` under 10%?
Response: TRUE

Prompt: Given the entry `[2H]C1([2H])c2ncccc2C(=O)N1Cc1c(F)cc(-c2ccc(OCCOC)c3nn(C)cc23)cc1C1CC1` , would its reported Emax be below 10%?
Response: FALSE

----------
target: human mAChR M1 (Homo sapiens, UniProt P11229); assay: mAChR M1 cell-based functional assay (calcium mobilization), PAM mode: increase in the EC20 acetylcholine response
Measured Emax values are reported for all entries that follow.

The following compounds have reported results that may help.
* [2H]C1([2H])c2ncccc2C(=O)N1Cc1ccc(-c2cnc3nn(C)cc3c2)cc1 [Compound 13] | 75%
* [2H]C1([2H])c2ncccc2C(=O)N1Cc1c(C)cc(-c2ccc(OC)c3nn(C([2H])([2H])[2H])cc23)cc1F [Compound 159] | 83%
* [2H]C1([2H])c2ncccc2C(=O)N1Cc1c(C)cc(-c2ccc(F)c3nn(C([2H])([2H])[2H])cc23)cc1F [Compound 158] | 80%
* [2H]C1([2H])c2ncccc2C(=O)N1Cc1c(F)cc(-c2cnc(OC)c3nn(C)cc23)cc1F [Compound 121] | 55%

[2H]C1([2H])c2ncccc2C(=O)N1Cc1c(F)cc(-c2ccc(OC3COC3)c3nn(C)cc23)cc1F [Compound 139] yielded Emax of 75%

----------
target: human mAChR M1 (Homo sapiens, UniProt P11229); experiment: mAChR M1 cell-based functional assay (calcium mobilization), agonist mode: compound alone, Emax relative to acetylcholine maximum; conditions: relative to the maximum for acetylcholine
Outcome measure: Emax (%)
Use % as the unit, but write only the number.

Take a look at these entries with their results.
- [2H]C1([2H])c2ncccc2C(=O)N1Cc1ccc(-c2ccc(OCC3CCCO3)c3nn(C)cc23)cc1F (centres unmarked): 12
- [2H]C1([2H])c2ncc(Br)cc2C(=O)N1Cc1c(F)cc(-c2cccc3nn(C)cc23)cc1F: 8
- [2H]C1([2H])c2ncccc2C(=O)N1Cc1ccc(-c2ccc3nn(C)cc3c2)cc1C: 2

According to the records, this compound `[2H]C([2H])([2H])Oc1cnc2c(c1)C(=O)N(Cc1ccc(-c3ccc4nn(C)cc4c3)cc1F)C2([2H])[2H]` displays Emax of 2

Emax in this record for `[2H]C1([2H])c2ncccc2C(=O)N1Cc1c(F)cc(-c2ccc(Cl)c3nn(C([2H])([2H])[2H])cc23)cc1F` : 1

----------
The following molecules are listed with their measured EC50 values.
Target: human mAChR M1 (Homo sapiens, UniProt P11229)
Sequence (P11229 1-460): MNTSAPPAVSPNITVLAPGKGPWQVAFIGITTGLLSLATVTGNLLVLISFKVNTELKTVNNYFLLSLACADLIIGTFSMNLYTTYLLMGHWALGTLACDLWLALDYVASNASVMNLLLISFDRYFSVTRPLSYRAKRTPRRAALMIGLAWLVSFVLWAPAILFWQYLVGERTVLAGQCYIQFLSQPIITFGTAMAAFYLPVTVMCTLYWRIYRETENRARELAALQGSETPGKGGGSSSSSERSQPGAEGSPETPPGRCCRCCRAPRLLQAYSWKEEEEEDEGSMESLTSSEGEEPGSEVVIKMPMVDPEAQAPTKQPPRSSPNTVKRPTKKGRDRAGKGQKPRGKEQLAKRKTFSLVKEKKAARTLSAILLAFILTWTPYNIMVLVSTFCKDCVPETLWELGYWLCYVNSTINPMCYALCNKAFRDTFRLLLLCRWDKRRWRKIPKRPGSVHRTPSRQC
Experiment: mAChR M1 cell-based functional assay (calcium mobilization), agonist mode: compound alone, Emax relative to acetylcholine maximum
Conditions: human mAChR M1

Examples with answers:
• [2H]C1([2H])c2ncccc2C(=O)N1Cc1ccc(-c2ccc(OCC3CCO3)c3nn(C)cc23)cc1F (stereo not shown) = ≥ 10 µM
• [2H]C1([2H])c2ncccc2C(=O)N1Cc1ccc(-c2ccc(O[C@@H]3CCOC3)c3nn(C)cc23)cc1F = ≥ 10 µM
• [2H]C1([2H])c2ncccc2C(=O)N1Cc1c(F)cc(-c2ccc(OC(C)COC)c3nn(C)cc23)cc1F (stereo not shown) = ≥ 10 µM
• [2H]C1([2H])c2ncccc2C(=O)N1Cc1c(F)cc(-c2cccc3nn(CC)cc23)cc1F = > 10 µM
• [2H]C1([2H])c2ncccc2C(=O)N1Cc1ccc(-c2ccc(O[C@H]3CCOC3)c3nn(C)cc23)cc1F = ≥ 10 µM
• [2H]C1([2H])c2ncccc2C(=O)N1Cc1ccc(-c2cnc3nn(C([2H])([2H])[2H])cc3c2)cc1F = ≥ 10 µM

Quick note, EC50 for `[2H]C1([2H])c2ncccc2C(=O)N1Cc1c(C)cc(-c2ccc3nn(C([2H])([2H])[2H])cc3c2)cc1F` landed at ≥ 10 µM

Quick note, EC50 for [2H]C1([2H])c2ncccc2C(=O)N1Cc1ccc(-c2ccc(OC(C)COC)c3nn(C)cc23)cc1F (stereo not shown) landed at ≥ 10 µM

Form field EC50, entry `[2H]C([2H])([2H])Oc1cnc2c(c1)C(=O)N(Cc1ccc(-c3cccc4nn(C)cc34)cc1)C2([2H])[2H]` : 6.23 µM

Form: molecule = `[2H]C1([2H])c2ncccc2C(=O)N1Cc1c(F)cc(-c2cccc3nn(C([2H])([2H])[2H])cc23)cc1C1CC1` ; EC50 = 7.52 µM

molecule `[2H]C1([2H])c2ncccc2C(=O)N1Cc1c(F)cc(-c2ccnc3nn(C)cc23)cc1F` , EC50 observed: 7.7 µM

`[2H]C1([2H])c2ncccc2C(=O)N1Cc1c(F)cc(-c2ccc(OCS(C)(=O)=O)c3nn(C)cc23)cc1F` has a reported EC50 of 7.23 µM

Entry `[2H]C1([2H])c2ncccc2C(=O)N1Cc1c(C)cc(-c2ccc(OC3CC3)c3nn(C)cc23)cc1F` ; EC50 = 8.68 µM

`[2H]C1([2H])c2ncccc2C(=O)N1Cc1c(C)cc(-c2ccc(C(F)(F)F)c3nn(C)cc23)cc1F` yielded EC50 of ≥ 10 µM
